# method description: chemical genetic growth profiling, strain panel (AID 1159580);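 further: tested at 20 µM; growth read once vehicle control cultures reached saturation at 30 °C; 1 = growth at the plate median or of vehicle wells; lower values mean less growth of the strain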
# condition label: S. cerevisiae deletion strains, growth OD, locus YLR039C, strain RIC1, stronger effect = lower value
Out of some 5,500 compounds screened, about 2,000 (36%) were called active. Another 18% or so got no clear call; they are omitted. This is one part of the list.
measured metric: normalized growth
Response field accepts a number only; no unit should be typed.

# lookup: normalized growth of COC(=O)C[C@H]1C(C)(C)[C@@H](O)[C@@H]2CC3=C4C=C(OC)O[C@@H](c5ccoc5)[C@]4(C)CCC3[C@@]1(C)C2=O (stereo partly specified)
0.935

# lookup: normalized growth of "COC(=O)CSCCc1nc(-c2ccc([N+](=O)[O-])cc2)cs1"
0.919

# lookup: normalized growth of C#CC1(O)CCC2C3CCC4=CC(=O)CCC4(C)C3CCC21C (stereo unspecified)
1.31

# lookup: normalized growth of "CC1=C(O)C(=O)C=C2C1=CC=C1[C@@]2(C)CC[C@@]2(C)[C@@H]3C[C@](C)(C(=O)O)CC[C@]3(C)CC[C@]12C"
0.157

====

# method description: chemical genetic growth profiling, strain panel (AID 1159580);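 further: tested at 20 µM; growth read once vehicle control cultures reached saturation at 30 °C; 1 = growth at the plate median or of vehicle wells; lower values mean less growth of the strain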
# condition label: S. cerevisiae deletion strains, growth OD, locus YKL085W, strain MDH1 (second series), stronger effect = lower value
Screen size: about 5,500 compounds; about 2,000 (36%) were called active. Another 18% or so got no clear call; they are omitted. Some of the results follow.
Each record here notes measured normalized growth.
Response field accepts a number only; no unit should be typed.

{"compound": "CC(=O)O[C@@H]1CC[C@]2(C)C3CC[C@]4(C)C(=O)CCC4C3CC[C@H]2C1 (stereo not given in full)", "normalized growth": 0.954}
{"compound": "CC(=O)OCC1=C(C(=O)O)N2C(=O)[C@@H](NC(=O)CCCC(N)C(=O)O)C2SC1 (stereo not given in full)", "normalized growth": 0.995}
{"compound": "CC(=O)OCC(=O)[C@@]1(O)CCC2C3CC[C@@H]4C[C@H](OC(C)=O)CC[C@]4(C)C3C(=O)C[C@@]21C (stereo not given in full)", "normalized growth": 1.01}
{"compound": "CC(=O)OC1CCC2(C)C3CC(=O)C4(C)C(CC5OC6(CCC(C)CO6)[C@@H](C)C54)C3CC[C@H]2C1 (stereo not given in full)", "normalized growth": 0.988}

Let us move to another entry and its normalized growth.
# lookup: normalized growth of CC(=O)O[C@H]1CC[C@]2(C)C3CC[C@@]4(C)C(CC5O[C@@]6(CCC(C)CO6)[C@@H](C)C54)C3CC[C@H]2C1 (stereo not given in full)
1.01

====

# method description: chemical genetic growth profiling, strain panel (AID 1159580);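 further: tested at 20 µM; growth read once vehicle control cultures reached saturation at 30 °C; 1 = growth at the plate median or of vehicle wells; lower values mean less growth of the strain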
# condition label: S. cerevisiae deletion strains, growth OD, locus YOR083W, strain WHI5 (second series), stronger effect = lower value
Among all 5,500 compounds or so, about 2,000 (36%) were called active. Not shown: some 18% with an inconclusive outcome. The list shows a part of the results.
Each record here notes measured normalized growth.
Response field accepts a number only; no unit should be typed.

Some compounds with known normalized growth results, for comparison:
{"compound": "CCN(CC)CCNC(=O)c1cc(Cl)c(N)cc1OC", "endpoint value": 0.999}
{"compound": "CCc1c(C(=O)OC)ncc2[nH]c3cc(OC)c(OC)cc3c12", "endpoint value": 1}
{"compound": "CCc1cccc2c3c([nH]c12)C(CC)(CC(=O)O)OCC3 (stereo not drawn)", "endpoint value": 0.978}
{"compound": "NC(C(=O)O)c1cc(=O)[nH]o1 (stereo not drawn)", "endpoint value": 1.01}
{"compound": "O=C(O)/C(=C/c1c(C(=O)O)[nH]c2cc(Cl)cc(Cl)c12)c1ccccc1", "endpoint value": 0.99}
{"compound": "CCN(CC)C(=O)N[C@@H]1C=C2c3cccc4[nH]cc(c34)C[C@H]2N(C)C1", "endpoint value": 0.992}

# lookup: normalized growth of "Cn1c(=O)c2[nH]c(-c3ccccc3)nc2n(C)c1=O"
1
